Test system: Clostridium sporogenes DSM 1664
Experiment: fold change of Tryptamine concentration vs plate DMSO controls (fold change (ratio)); higher = more amine produced, active = hit call of the paper (significant change in both replicates, either direction)
Conditions: incubation time: 27 h, anaerobic, 37 °C
Structures can show the parent of a compound that is named as a salt.
parameterMeasured: fold change of Tryptamine concentration

compound="COCCOC(=O)C1=C(C)NC(C)=C(C(=O)OC/C=C/c2ccccc2)C1c1cccc([N+](=O)[O-])c1 (configuration not stated) [Cilnidipine] (20 µM)" parametermeasured="fold change of Tryptamine concentration" readoutvalue=0.918
compound="Cn1c(=O)c2c(ncn2CCO)n(C)c1=O [Etofylline] (20 µM)" parametermeasured="fold change of Tryptamine concentration" readoutvalue=0.964
compound="CN(C)C/C=C(/c1ccc(Br)cc1)c1cccnc1 [Zimelidine dihydrochloride monohydrate] (20 µM)" parametermeasured="fold change of Tryptamine concentration" readoutvalue=1.03
compound="COc1ccc(/C=C/C(=O)Nc2ccccc2C(=O)O)cc1OC [Tranilast] (20 µM)" parametermeasured="fold change of Tryptamine concentration" readoutvalue=0.993
compound="CCCCOCCOCCOCc1cc2c(cc1CCC)OCO2 [Piperonyl butoxide] (20 µM)" parametermeasured="fold change of Tryptamine concentration" readoutvalue=1.04
compound="CC(=O)OC(C)C[N+](C)(C)C (configuration not stated) [Methacholine chloride] (20 µM)" parametermeasured="fold change of Tryptamine concentration" readoutvalue=1.01
compound="CN[C@@H]1[C@@H](O)[C@@H](O[C@@H]2[C@@H](O)[C@H](O[C@H]3OC(CN)=CC[C@H]3N)[C@@H](N)C[C@H]2N)OC[C@]1(C)O [Sisomicin sulfate] (20 µM)" parametermeasured="fold change of Tryptamine concentration" readoutvalue=0.984
compound="CCN1CCCC1CNC(=O)c1cc(S(=O)(=O)CC)c(N)cc1OC (configuration not stated) [Amisulpride] (20 µM)" parametermeasured="fold change of Tryptamine concentration" readoutvalue=1.01
compound="CCN(CC)CCOCCOC(=O)C(CC)(CC)c1ccccc1 [Oxeladin citrate] (20 µM)" parametermeasured="fold change of Tryptamine concentration" readoutvalue=1.01
compound="COc1cc(N)cn[n+]1-c1ccccc1 [Amezinium metilsulfate] (20 µM)" parametermeasured="fold change of Tryptamine concentration" readoutvalue=1.05
compound="C[C@H](N)[C@H](O)c1cccc(O)c1 [Metaraminol bitartrate] (20 µM)" parametermeasured="fold change of Tryptamine concentration" readoutvalue=1.05
compound="NC1CCN(c2nc3c(cc2F)c(=O)c(C(=O)O)cn3-c2ccc(F)cc2F)C1 (configuration not stated) [Tosufloxacin hydrochloride] (20 µM)" parametermeasured="fold change of Tryptamine concentration" readoutvalue=0.0441
compound="OCCN1CCN(CC/C=C2/c3ccccc3Sc3ccc(C(F)(F)F)cc32)CC1 [Flupentixol dihydrochloride cis-(Z)] (20 µM)" parametermeasured="fold change of Tryptamine concentration" readoutvalue=1.12
compound="CCCCC(=O)N(Cc1ccc(-c2ccccc2-c2nnn[nH]2)cc1)[C@H](C(=O)O)C(C)C [Valsartan] (20 µM)" parametermeasured="fold change of Tryptamine concentration" readoutvalue=1.05
compound="Nc1nc(O)c2ncn(CCC(CO)CO)c2n1 [Penciclovir] (20 µM)" parametermeasured="fold change of Tryptamine concentration" readoutvalue=1.07
compound="O=P(O)(O)C(Cl)(Cl)P(=O)(O)O [Clodronate disodium] (20 µM)" parametermeasured="fold change of Tryptamine concentration" readoutvalue=0.973
compound="C[C@@](Cc1ccc(O)c(O)c1)(NN)C(=O)O [Carbidopa] (20 µM)" parametermeasured="fold change of Tryptamine concentration" readoutvalue=1.04
compound="Cc1nc(=O)c2cc(CN(C)c3ccc(C(=O)N[C@@H](CCC(=O)O)C(=O)O)s3)ccc2[nH]1 [Raltitrexed] (20 µM)" parametermeasured="fold change of Tryptamine concentration" readoutvalue=1.17
compound="CCC(=O)[C@@]1(C)[C@H](C)C[C@H]2[C@@H]3CCC4=CC(=O)C=C[C@]4(C)[C@H]3[C@@H](O)C[C@@]21C [Rimexolone] (20 µM)" parametermeasured="fold change of Tryptamine concentration" readoutvalue=0.98
compound="NS(=O)(=O)Cc1noc2ccccc12 [Zonisamide] (20 µM)" parametermeasured="fold change of Tryptamine concentration" readoutvalue=1.07
compound="CCCCNc1ccc(C(=O)OCCN(C)C)cc1 [Tetracaine hydrochloride] (20 µM)" parametermeasured="fold change of Tryptamine concentration" readoutvalue=1.04
compound="O=C(O)c1ccccc1C(=O)Nc1ccc(S(=O)(=O)Nc2nccs2)cc1 [Phthalylsulfathiazole] (20 µM)" parametermeasured="fold change of Tryptamine concentration" readoutvalue=1.1
